The measured values listed here are drawn from patent US20230265151A1.

# targetUnderTest: T1, human GIP receptor (human, UniProt P48546 22-466)
# T1 sequence (looked up): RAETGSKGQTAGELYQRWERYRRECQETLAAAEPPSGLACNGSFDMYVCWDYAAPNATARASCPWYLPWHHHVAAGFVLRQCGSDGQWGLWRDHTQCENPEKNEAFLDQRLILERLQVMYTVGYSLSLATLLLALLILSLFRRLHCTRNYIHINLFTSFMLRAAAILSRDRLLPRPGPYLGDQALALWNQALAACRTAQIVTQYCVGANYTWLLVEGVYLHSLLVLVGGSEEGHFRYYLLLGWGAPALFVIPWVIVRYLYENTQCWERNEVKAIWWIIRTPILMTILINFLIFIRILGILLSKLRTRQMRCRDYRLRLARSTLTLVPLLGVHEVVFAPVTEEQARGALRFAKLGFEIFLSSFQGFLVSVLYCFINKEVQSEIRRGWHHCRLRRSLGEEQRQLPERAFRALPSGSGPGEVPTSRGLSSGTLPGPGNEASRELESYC
# experimentSummary: cell-based or functional assay
We begin with a simple list: items and their reported cAMP EC50 (1.0% HSA).
assayReadout: cAMP EC50 (1.0% HSA) (nM)

# binder, unitsText, dataValue
rows = [
    ("YXEGTXTSDXSIXLDXIAQXEFIXXLIKGGPSSGAPPPSK (Aib2, αMeF(2F)6, 4Pal10, αMeL13, Orn16, Aib20, D-Glu24, αMeY25; acylated K28, K40 (groups as in name); C-terminal amide)", "nM", 0.242),
    ("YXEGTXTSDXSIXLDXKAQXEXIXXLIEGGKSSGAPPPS (Aib2, αMeF6, 4Pal10, αMeL13, Orn16, Aib20, αMeF22, D-Glu24, αMeY25; acylated K17, K31 (groups as in name); C-terminal amide)", "nM", 1.24),
    ("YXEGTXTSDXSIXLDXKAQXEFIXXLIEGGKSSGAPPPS (Aib2, αMeF(2F)6, αMeV10, αMeL13, Orn16, Aib20, D-Glu24, αMeY25; acylated K17, K31 (groups as in name); C-terminal amide)", "nM", 18.6),
    ("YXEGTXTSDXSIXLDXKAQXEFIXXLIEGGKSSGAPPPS (Aib2, αMeF6, 4Pal10, αMeL13, Orn16, Aib20, D-Glu24, αMeF25; acylated K17, K31 (groups as in name); C-terminal amide)", "nM", 2.12),
    ("YXEGTXTSDXSIXLDXKAQXEFIXXLIEGGKSSGAPPPX (Aib2, αMeF(2F)6, 4Pal10, αMeL13, Orn16, Aib20, D-Glu24, αMeY25, Orn39; acylated K17, K31 (groups as in name); C-terminal amide)", "nM", 1.34),
    ("YXEGTXTSDXSIXLDXKAQXGFIXXLIEGGKSSGAPPPS (Aib2, αMeF(2F)6, 4Pal10, αMeL13, Orn16, Aib20, D-Glu24, αMeY25; acylated K17, K31 (groups as in name); C-terminal amide)", "nM", 0.515),
]
